# Target Under Test: AsPC-1 cells (Homo sapiens, UniProt P01116, G12D)
# Construct: p-ERK/total ERK AlphaSureFire read-out
# Sequence (P01116 1-188 isoform P01116-2 G12D): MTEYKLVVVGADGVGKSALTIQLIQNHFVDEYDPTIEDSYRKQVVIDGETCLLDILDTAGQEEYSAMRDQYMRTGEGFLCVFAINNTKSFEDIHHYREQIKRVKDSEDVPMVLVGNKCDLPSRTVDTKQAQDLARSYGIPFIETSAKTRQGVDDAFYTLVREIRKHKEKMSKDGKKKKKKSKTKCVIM
# Method Summary: Cellular phospho-ERK assay, AsPC-1 cells (KRAS G12D)
# Condition Parameters: 2 hours, read-out: AsPC1 pERK IC50
Property Name: IC50 (µM)

# IC50 measured on AsPC-1 cells (Homo sapiens, UniProt P01116, G12D) for item Cc1cc2[nH]ncc2c(-c2nccc3c2sc2nc(N4CCCN(C)CC4C)nc(N4C[C@H]5CC[C@@H](C4)N5)c23)c1C(F)(F)F (stereo partly drawn) = 6.8

A = CC12CC(COc3nc(N4C[C@H]5CC[C@@H](C4)N5)c4c(n3)sc3c(-c5c(C6CC6)c(Cl)cc6[nH]ncc56)nccc34)(CO1)C2
B = Cc1cc2[nH]ncc2c(-c2nccc3c2sc2nc(OC[C@H]4C[C@H](C#N)C4)nc(N4C[C@H]5CC[C@@H](C4)N5)c23)c1C(F)(F)F
C = C#Cc1csc2cc3[nH]ncc3c(-c3nccc4c3sc3nc(OC[C@]5(CN6CC7(C6)CC(F)(F)C7)CC5(F)F)nc(N5C[C@H]6CC[C@@H](C5)N6)c34)c12
# input Output the entries ranked by IC50 from maximum down to minimum. Submit the labels in the order that the ranking request calls for.
# output A, B, C
